# assay_procedure: Rat pharmacokinetics, intravenous administration
# Format: in vivo
# condition_set: in vivo, 5 mg/kg, Rat 1, read-out: Tmax (converted)
observed_property: Tmax (min)
Provide the reading as a plain figure in min.

Give the measured Tmax of O=C(Nc1ccc2sc(-c3ccc(F)c(F)c3)nc2c1)N1CC[C@H](F)C1 .
5

====

# assay_procedure: Rat pharmacokinetics, intravenous administration
# Format: in vivo
# condition_set: rat, plasma, iv, 5 mg/kg, Rat 1, read-out: Apparent T1/2 (min) for terminal phase
observed_property: half-life (min)
Provide the reading as a plain figure in min.

Give the measured half-life of O=C(Nc1ccc2sc(-c3ccc(F)c(F)c3)nc2c1)N1CC[C@H](F)C1 .
88.5
